Taken from the supplement of paper PMC11208160.

// recombinant UMI read abundance (log10) lookup, one value per entry
# test.protocol: recombinant UMI read abundance after kanamycin selection (control-corrected) (log10(CPM+1)); higher = more efficient recombination; extreme values may be limits of the assay; sequences stand for … in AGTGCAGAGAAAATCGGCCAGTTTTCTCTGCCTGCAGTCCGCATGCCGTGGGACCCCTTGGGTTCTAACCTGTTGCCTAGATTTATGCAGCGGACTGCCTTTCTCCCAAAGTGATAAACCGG…AGGTTGGTTTCACT; site = the 11-nt donor
reported.property: recombinant UMI read abundance (log10)

INSERT INTO assay_data (entry_sequence, recorded_value) VALUES
  ('GTTCTCTCATGGACCGGTTTTCCCGGTAATCCGTATTTGTA (site GTTCTCTCTTA)', 1.83),
  ('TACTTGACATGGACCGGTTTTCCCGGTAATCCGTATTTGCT (site TACTTGTCTAG)', 0.0219),
  ('GGTCCTCCATGGACCGGTTTTCCCGGTAATCCGTATTTGTT (site GGTCCTCCTAA)', 0.025),
  ('TCCGGGTCATGGACCGGTTTTCCCGGTAATCCGTATTTGAC (site GGAATCGCTAG)', 0),
  ('AGTTTGGCATGGACCGGTTTTCCCGGTAATCCGTATTTGCT (site GGTTTGGCTAG)', 0),
  ('CAGTCCACATGGACCGGTTTTCCCGGTAATCCGTATTTGGG (site CAGTCTACTCC)', 0);

---

# test.protocol: recombinant UMI read abundance after kanamycin selection (control-corrected) (log10(CPM+1)); higher = more efficient recombination; extreme values may be limits of the assay; sequences stand for … in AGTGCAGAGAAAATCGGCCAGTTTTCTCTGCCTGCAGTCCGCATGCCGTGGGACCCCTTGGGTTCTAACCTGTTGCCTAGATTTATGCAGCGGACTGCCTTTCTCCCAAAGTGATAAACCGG…AGGTTGGTTTCACT; site = the 11-nt donor
// recombinant UMI read abundance (log10) lookup, one value per entry
reported.property: recombinant UMI read abundance (log10)

INSERT INTO measurements (entry_sequence, recorded_value) VALUES
  ('ATCCAAGCATGGACCGGTTTTCCCGGTAATCCGTATTTGCG (site ATCCAAGCTCG)', 0.262),
  ('AAGCACGCATGGACCGGTTTTCCCGGTAATCCGTATTTGAG (site AAGCACGCTCT)', 1.49),
  ('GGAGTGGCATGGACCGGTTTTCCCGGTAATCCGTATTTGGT (site GGAGTTGCTAC)', 0),
  ('GTTAGAGCATGGACCGGTTTTCCCGGTAATCCGTATTTGCA (site GTTAGAGCTTG)', 3.02),
  ('CGAGGACCATGGACCGGTTTTCCCGGTAATCCGTATTTGAG (site CGAGGACCTCC)', 0),
  ('TCAGAGACATGGACCGGTTTTCCCGGTAATCCGTATTTGAG (site TCAGAGACTCC)', 0.288),
  ('TGACTGTCATGGACCGGTTTTCCCGGTAATCCGTATTTGAT (site TGACTGTCTAT)', 0.245),
  ('TTATCATCATGGACCGGTTTTCCCGGTAATCCGTATTTGAG (site TTATCATCTCT)', 0.385),
  ('ATCTATGCATGGACCGGTTTTCCCGGTAATCCGTATTTGAC (site ATCTATACTGT)', 2.11),
  ('GAAGAGACATGGACCGGTTTTCCCGGTAATCCGTATTTGCT (site GAAGAGACTAG)', 2.79),
  ('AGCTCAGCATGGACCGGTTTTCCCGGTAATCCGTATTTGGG (site AGCTCACCTCC)', 0.00337),
  ('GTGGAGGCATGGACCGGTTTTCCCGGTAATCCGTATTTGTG (site GCGGAGGCTCA)', 0.6),
  ('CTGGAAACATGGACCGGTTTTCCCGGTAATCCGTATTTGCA (site CTGGAAACTTA)', 1.34),
  ('AAGGAATCATGGACCGGTTTTCCCGGTAATCCGTATTTGCG (site AAGGAATCTCG)', 3.14),
  ('GGACACCCATGGACCGGTTTTCCCGGTAATCCGTATTTGTT (site GGTCACCCTAA)', 0.00995),
  ('TTCAAACCATGGACCGGTTTTCCCGGTAATCCGTATTTGCG (site TTCAAACCTCG)', 0),
  ('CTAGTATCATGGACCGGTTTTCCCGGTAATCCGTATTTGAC (site CTAGGATCTGT)', 0.927),
  ('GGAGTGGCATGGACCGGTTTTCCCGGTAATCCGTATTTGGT (site GAAGTGGCTAC)', 0.126),
  ('CTCCGGCCATGGACCGGTTTTCCCGGTAATCCGTATTTGCT (site CTCCGGCCTAG)', 0.589);

---

# test.protocol: recombinant UMI read abundance after kanamycin selection (control-corrected) (log10(CPM+1)); higher = more efficient recombination; extreme values may be limits of the assay; sequences stand for … in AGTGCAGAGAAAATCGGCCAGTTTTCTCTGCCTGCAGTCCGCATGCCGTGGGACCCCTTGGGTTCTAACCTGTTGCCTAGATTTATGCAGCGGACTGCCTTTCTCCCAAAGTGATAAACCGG…AGGTTGGTTTCACT; site = the 11-nt donor
// recombinant UMI read abundance (log10) lookup, one value per entry
reported.property: recombinant UMI read abundance (log10)

INSERT INTO results (entry_sequence, reported_property, recorded_value) VALUES
  ('CGGAATCCATGGACCGGTTTTCCCGGTAATCCGTATTTGAC (site CGGAATCCTAA)', 'recombinant UMI read abundance (log10)', 0.003),
  ('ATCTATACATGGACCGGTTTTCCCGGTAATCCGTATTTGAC (site GTCTATACTGT)', 'recombinant UMI read abundance (log10)', 0.424),
  ('CTGTTACCATGGACCGGTTTTCCCGGTAATCCGTATTTGCT (site CTGTTACCTAG)', 'recombinant UMI read abundance (log10)', 0),
  ('ATTAGAACATGGACCGGTTTTCCCGGTAATCCGTATTTGAG (site ACTAGAACTCT)', 'recombinant UMI read abundance (log10)', 0.665),
  ('CCTTGCCCATGGACCGGTTTTCCCGGTAATCCGTATTTGAT (site CCTTGCCCTAT)', 'recombinant UMI read abundance (log10)', 0.00286),
  ('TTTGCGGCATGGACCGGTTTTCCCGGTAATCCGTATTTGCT (site TTTGCAGCTAG)', 'recombinant UMI read abundance (log10)', 0.0183),
  ('AGCCATTCATGGACCGGTTTTCCCGGTAATCCGTATTTGAC (site AGCCTTTCTGT)', 'recombinant UMI read abundance (log10)', 0),
  ('CAATGCCCATGGACCGGTTTTCCCGGTAATCCGTATTTGCT (site CAATACCCTAG)', 'recombinant UMI read abundance (log10)', 1.74);

---

# test.protocol: recombinant barcode read abundance after kanamycin selection (control-corrected) (log10(CPM+1)); higher = more efficient recombination; sequences stand for … in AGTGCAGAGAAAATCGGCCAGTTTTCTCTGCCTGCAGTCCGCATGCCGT…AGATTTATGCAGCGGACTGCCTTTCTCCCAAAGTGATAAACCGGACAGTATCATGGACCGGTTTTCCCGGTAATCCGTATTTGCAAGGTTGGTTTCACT; site = the 11-nt target
reported.property: recombinant barcode read abundance (log10)

INSERT INTO assay_data (entry_sequence, recorded_value) VALUES
  ('GTGCAGACTTGGGTTCTAACCTGTTGCCT (site GTTCAGACTAG)', 0.367),
  ('CTAATGTCTTGGGTTCTAACCTGTTGCCA (site CTAATGTCTTG)', 0.26),
  ('GATAACTCTTGGGTTCTAACCTGTTGCCT (site CATAACTCTAG)', 0.329),
  ('TGAGTCTCTTGGGTTCTAACCTGTTGCCA (site ACCCAGCCTCT)', 0.0473),
  ('CCAAATCCTTGGGTTCTAACCTGTTGCAT (site TGTCTAGCTCC)', 0.697),
  ('TGTGAGTCTTGGGTTCTAACCTGTTGCGT (site TGTGAGTCTAG)', 0.27),
  ('AGTGCGTCTTGGGTTCTAACCTGTTGCCT (site TGTGCGTCTAG)', 0.0164),
  ('AGTGCGTCTTGGGTTCTAACCTGTTGCCT (site GGTGCGTCTAG)', 0.241),
  ('ACACTGGCTTGGGTTCTAACCTGTTGCCT (site ACTCTGGCTAG)', 0);

---

# test.protocol: recombinant barcode read abundance after kanamycin selection (control-corrected) (log10(CPM+1)); higher = more efficient recombination; sequences stand for … in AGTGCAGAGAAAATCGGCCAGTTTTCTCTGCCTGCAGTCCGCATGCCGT…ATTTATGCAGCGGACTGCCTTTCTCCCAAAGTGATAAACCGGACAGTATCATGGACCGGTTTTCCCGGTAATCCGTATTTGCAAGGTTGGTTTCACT; site = the 11-nt target
Please use YES whenever recombinant barcode read abundance (log10) is not below 0.2, and NO whenever it is.

INSERT INTO assay_data (entry_sequence, category) VALUES
  ('CATATTAGCTGGGTTCTAACCTGTTGCCTGC [CATATTACTAG_LTGcore_GC_RTGcore_GC] (site CATATTACTAG) (LTG core: GC, RTG core: GC)', 'NO'),
  ('GGTGCCCGTTGGGTTCTAACCTGTTGCCGAC [GGTGCCCCTCG_LTGcore_GT_RTGcore_GT] (site GGTGCCCCTCG) (LTG core: GT, RTG core: GT)', 'NO'),
  ('GTCGCCCCTTGGGTTCTAACCTGTTGCTAGG [GTCGCCCCTTA_LTGcore_CT_RTGcore_CC] (site GTCGCCCCTTA) (LTG core: CT, RTG core: CC)', 'YES'),
  ('GGACACCAGTGGGTTCTAACCTGTTGCCTAG [GGACACCCTAG_LTGcore_AG_RTGcore_CT] (site GGACACCCTAG) (LTG core: AG, RTG core: CT)', 'NO'),
  ('ATGTCCCGTTGGGTTCTAACCTGTTGCTCAG [ATGTCCCCTGA_LTGcore_GT_RTGcore_CT] (site ATGTCCCCTGA) (LTG core: GT, RTG core: CT)', 'NO'),
  ('GGGCGTGGTTGGGTTCTAACCTGTTGCCTAC [GGGCGTGCTAG_LTGcore_GT_RTGcore_GT] (site GGGCGTGCTAG) (LTG core: GT, RTG core: GT)', 'YES'),
  ('GAGTCCACATGGGTTCTAACCTGTTGCGTAG [GAGTCCACTAC_LTGcore_CA_RTGcore_CT] (site GAGTCCACTAC) (LTG core: CA, RTG core: CT)', 'YES');
